# credit: patent US20260124309A1

- measurementTarget: STAT6 (Homo sapiens, UniProt P42226)
- Construct: endogenous in cells; host or cells: A549
- Sequence (P42226 1-847): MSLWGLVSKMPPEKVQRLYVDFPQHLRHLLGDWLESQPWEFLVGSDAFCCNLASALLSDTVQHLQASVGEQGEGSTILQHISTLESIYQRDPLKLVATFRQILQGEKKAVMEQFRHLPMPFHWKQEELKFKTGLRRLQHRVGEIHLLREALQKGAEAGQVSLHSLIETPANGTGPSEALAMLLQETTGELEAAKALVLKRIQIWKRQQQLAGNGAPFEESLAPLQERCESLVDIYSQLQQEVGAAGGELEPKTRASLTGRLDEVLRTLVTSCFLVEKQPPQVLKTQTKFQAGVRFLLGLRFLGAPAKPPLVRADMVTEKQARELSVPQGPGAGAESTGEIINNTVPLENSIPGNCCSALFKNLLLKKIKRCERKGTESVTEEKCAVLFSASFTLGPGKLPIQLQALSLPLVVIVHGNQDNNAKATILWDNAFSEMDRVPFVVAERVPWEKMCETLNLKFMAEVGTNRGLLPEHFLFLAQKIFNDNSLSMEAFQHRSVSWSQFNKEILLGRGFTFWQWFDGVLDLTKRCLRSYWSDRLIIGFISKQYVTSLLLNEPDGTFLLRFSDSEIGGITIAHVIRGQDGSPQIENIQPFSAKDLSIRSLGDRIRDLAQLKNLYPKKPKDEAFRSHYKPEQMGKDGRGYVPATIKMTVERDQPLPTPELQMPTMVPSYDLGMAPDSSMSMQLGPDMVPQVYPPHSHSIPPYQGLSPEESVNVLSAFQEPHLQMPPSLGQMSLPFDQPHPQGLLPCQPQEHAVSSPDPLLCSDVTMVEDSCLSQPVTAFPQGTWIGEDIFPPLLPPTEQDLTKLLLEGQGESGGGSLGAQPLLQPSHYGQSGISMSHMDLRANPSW
- assayText: STAT6 MSD degradation in A549 cells
- Type: cell-based
- measurementConditions: 24 h
parameterMeasured: Dmax

IN: If you can, please state the reported Dmax value of CN(C)C(=O)c1cc2c(-c3ccc(C4CCN(c5ccc(C6CCC(=O)NC6=O)cc5F)CC4)cc3)cc(C3=CCCN(C(=O)CCn4ccnn4)C3)c(F)c2[nH]1 (centres unmarked) [Example I-1015] .
OUT: 70 to 90%

IN: If you can, please state the reported Dmax value of CN(C)C(=O)c1cc2c(F)c(C3=CCCN(C(=O)CCn4cccn4)C3)cc(-c3ccc(C4CN(C(=O)c5ccc(Cl)c(C6CCC(=O)NC6=O)c5)C4)cc3)c2o1 (centres unmarked) [Example I-495] .
OUT: 50 to 70%

IN: If you can, please state the reported Dmax value of COc1cc(N2CCN(CCCCCCCCN(C(=O)[C@H]3CCCN(c4cncc5ccccc45)C3)c3ccc(=O)n(CC(=O)O)c3)CC2)ccc1-c1cc(C2=CCCN(C(=O)CCn3ccnn3)C2)c(F)c2[nH]c(C(=O)N(C)C)cc12 [Example I-1076] .
OUT: 50 to 70%

IN: If you can, please state the reported Dmax value of Cc1cc(C2CCN(c3cccc4c3n(C)c(=O)n4[C@H]3CCC(=O)NC3=O)CC2)ccc1-c1cc(C2=CCCN(C(=O)C(C)C)C2)c(F)c2[nH]c(C(=O)N(C)C)cc12 (single isomer, unassigned) [Example I-791] .
OUT: > 90%

IN: If you can, please state the reported Dmax value of CC(=O)N1CCC=C(c2cc(-c3ccc(C4CCN(c5cccc6c5n(C)c(=O)n6C5CCC(=O)NC5=O)CC4)cc3C)c3cc(C(=O)N(C)C)[nH]c3c2F)C1 (centres unmarked) [Example I-455] .
OUT: > 90%
